# Test system: E. coli TESEC Mtb Asd
# Procedure details: growth (OD600 after 10 h); higher = more growth (less inhibition)
# Condition summary: arabinose induction (level): Low; compound 0.1 mM; raw OD600 reference: median of DMSO wells 0.417, cell-free background 0.041
Structures can show the parent of a compound that is named as a salt.
# maps each entry to its growth
API doc: respond with a numeric literal and nothing else, no unit.

Compound	Tested on	growth
Cc1c(C)c2c(c(C)c1O)CCC(C)(C(=O)O)O2 (stereo unspecified)	E. coli TESEC Mtb Asd	0.32
CCOC(=O)C1=C(C)NC(C)=C(C(=O)OC)C1c1cccc(Cl)c1Cl (stereo unspecified)	E. coli TESEC Mtb Asd	0.0538
COC(=O)Nc1nc2cc(C(=O)c3cccs3)ccc2[nH]1	E. coli TESEC Mtb Asd	0.415
CC(=O)N(CC(O)CN(C(C)=O)c1c(I)c(C(=O)NCC(O)CO)c(I)c(C(=O)NCC(O)CO)c1I)c1c(I)c(C(=O)NCC(O)CO)c(I)c(C(=O)NCC(O)CO)c1I (stereo unspecified)	E. coli TESEC Mtb Asd	0.421
c1ccc(CN(CC2=NCCN2)c2ccccc2)cc1 [Antazoline hydrochloride]	E. coli TESEC Mtb Asd	0.441

Measured growth of Cn1c(=O)c2c(ncn2CCO)n(C)c1=O : 0.425

Measured growth of O=c1[nH]c(=O)n(C2CCCO2)cc1F (stereo unspecified) : 0.359
